# assay.info: Pharmacokinetic assays in rats (iv, po, sc)
# settings: male, Sprague-Dawley, rat, in vivo, po, 10 mg/kg
# cutoff 5% applies to bioavailability; >= gives fulfilled, < gives not fulfilled

compound="CC(Cc1ccc(F)c(F)c1)NCCCc1ccc(C(N)=O)cc1 (centres unmarked)" class_assignment=fulfilled
compound="CC(Cc1ccc(F)c(F)c1)NCCCc1cccc(C(N)=O)c1 (centres unmarked)" class_assignment="not fulfilled"
compound="CC(Cc1ccc(F)c(F)c1)NCCCc1ccc2nn[nH]c2c1 (centres unmarked)" class_assignment=fulfilled

Let's switch to this compound now.
Inquiry: Given CC(Cc1ccc(F)c(F)c1)NCCCc1ccc2nc[nH]c2c1 (centres unmarked) , state whether its bioavailability is at least 5%.
Reply text: fulfilled
